Can you tell me TGI for the items I'm about to list?
- Tested on: HCT-15 colon
- assay_method_text: NCI tumour cell line growth inhibition, 48 h

Known TGI results, listed for orientation:
molecule	TGI
CCOC(=O)NC(=O)c1cn(CCN2CCN(C(=O)NCCCCCCNC(=O)N3CCN(CCn4cc(C(=O)NC(=O)OCC)c(=O)[nH]c4=O)CC3)CC2)c(=O)[nH]c1=O	> 100 µM
COc1cc(/C=C2\C(=O)N(c3cccc([N+](=O)[O-])c3)C(c3ccccc3)S2(=O)=O)cc(OC)c1OC (stereo not drawn)	> 100 µM

# batch: return TGI for each of the 8 molecules below
1. C[N+](C)(C)CCC(=O)CC[N+](C)(C)C
2. COC(=O)[C@H]1C=NN[C@@H]1C(=O)N1[C@H]2CC3CC[C@@]2(CS1(=O)=O)C3(C)C
3. CCOc1ccccc1CCN=C1NC(=O)/C(=C/c2ccc3ncccc3c2)S1
4. C=CCc1c(Cl)nc(Cl)nc1Cl
5. CC(C)(C)c1ccccc1N1C(=O)c2ccc3c4c(ccc(c24)C1=O)N(c1ccccc1C(C)(C)C)C3=O
6. Nc1ncn([C@@H]2S[C@H](CO)[C@@H](O)[C@@H]2F)c(=O)n1
7. C/C=C/C(C#N)O[Si](C)(C)C (stereo not drawn)
8. O=c1[nH]c(Nc2ccccc2)nc2c1ncn2CC(O)CSCCO (stereo not drawn)

1. 42.9 µM
2. > 100 µM
3. > 25 µM
4. 0.938 µM
5. > 100 µM
6. > 100 µM
7. > 100 µM
8. > 100 µM

# batch: return TGI for each of the 4 molecules below
1. CCC1(O)C(=O)OCc2c1cc1n(c2=O)Cc2cc3ccccc3nc2-1 (stereo not drawn)
2. O=C(Nc1ccccc1F)c1cc2ccc(O)cc2oc1=Nc1cccc(F)c1
3. CCN1C(=O)N(CC)C2C1NN=c1s/c(=C\c3ccc(Cl)cc3Cl)c(=O)n12 (stereo not drawn)
4. CCOC(=O)c1c(C)n(Cc2ccc(Cl)cc2Cl)c2c1cc(O)c1[nH]c3c(c12)CCCC3

1: 17.1 µM; 2: 24.4 µM; 3: > 100 µM; 4: > 100 µM

----------
- Test system: DU-145 prostate
- assay_method_text: NCI tumour cell line growth inhibition, 48 h; in the data active means GI50 below about 0.43 µM; inactive means the rest
Would you mind answering with one of these outcomes? true (1) (active), false (0) (inactive)

Reference set, count: 4
compound	category_label
CC1CC(C)CC(C)C(O)/C(C#N)=C/C=C/CC(C2CCCC2C(=O)O)OC(=O)CC(O)C(C)C1 (stereo not given)	true (1)
CCOc1ccccc1CCN=C1NC(=O)/C(=C/c2ccc3ncccc3c2)S1	false (0)
CC1=C([Se]CC(OC(=O)CC[Se]c2ccccc2)C(=O)NC(C)(C)C)C(=O)c2ccccc2C1=O (stereo not given)	false (0)
C=C1CCC2C3(C)COC(C)(C)OC3CCC2(C)C1C/C=C1/C(=O)OCC1OC(C)=O (stereo not given)	false (0)

Consider the additional compound presented here.
Fill in: this test's call for CC(C)c1ccc(Cn2ccc3c4c(N)nc(NC5CC5)nc4ccc32)cc1 is ___
true (1)

----------
- Tested on: T-47D breast
- assay_method_text: NCI tumour cell line growth inhibition, 48 h
metric: TGI

Known TGI results, listed for orientation:
compound	metric	result
CN(C)c1cc2ccccc2oc1=O	TGI	> 100 µM
COc1cc(/C=C/C(=O)/C=C/c2cc(OC)c3c(c2)OCO3)cc2c1OCO2	TGI	> 100 µM
Nc1nc2ccc(-c3nc4ccc5[nH]ncc5c4c4c3CCC4)cc2s1	TGI	15.3 µM
Cn1c(=O)c2c(nc3n(CC(O)CCl)c(=O)ccn23)n(C)c1=O (stereo not given)	TGI	> 100 µM
N#CN1C2CCC1CC(=O)C2	TGI	> 100 µM

# batch: return TGI for each of the 4 compounds below
1. Nc1n(CC(=O)c2ccccc2)nc2sc(-c3ccccc3)n[n+]12
2. CC1=C2C(=C[C@@](C)(CO)[C@@H]2OC(=O)N(C)CCN(C)C(=O)OC(C)(C)C)C(=O)[C@](C)(O)C12CC2
3. O=C(Nc1ccc(N2C(=O)CSC2c2ccccc2O)cc1)c1ccc(N2C(=O)CSC2c2ccccc2O)cc1 (stereo not given)
4. COc1cccc(N2C(=O)CSC2c2cccc(Oc3ccccc3)c2)c1 (stereo not given)

1. > 100 µM
2. 35.2 µM
3. > 100 µM
4. > 100 µM

# batch: return TGI for each of the 3 compounds below
1. CC(=O)c1c(C(F)(F)F)n([O-])c2ccccc2[n+]1=O
2. CCC1(O)C(=O)OCc2c1cc1n(c2=O)Cc2cc3ccccc3nc2-1 (stereo not given)
3. O=C(O)CN(CC(=O)O)C1CCCCC1N1CC(=O)OC(=O)C1 (stereo not given)

1: 4.02 µM; 2: > 33.6 µM; 3: > 100 µM

# batch: return TGI for each of the 3 compounds below
1. c1ncn(C23C4C5C6C4C2C6C53)n1 (stereo not given)
2. C/C(CC(O)(C(F)(F)F)C(F)(F)F)=N\NC(N)=O
3. CC(=O)Nc1ccc2c(C)c3c(nc2n1)[nH]c1ccccc13

1: > 100 µM; 2: > 10 µM; 3: 55.5 µM
